Quick reference: protein stability index of the listed items.
B1: CDC14A (parent)
chain: LWVQGDIFRSKLKNRPSSEGSINK

# Variants of: B1
# assay-overview: protein stability index of a GFP-peptide fusion (GPS, HEK-293T) (PSI 1-6); higher = more stable;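 note: lentivirally expressed fusions sorted by FACS into six bins by GFP to DsRed ratio, PSI derived from sequencing read proportions per bin multiplied by bin number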
# reported-conditions: c terminus: a fixed tail appended
metric: protein stability index

1. S10T 2.45
2. I22S 3.88
3. K24C 1.93
4. L12H 2.71
5. S17G 2.87
6. N23E 2.89
7. V3T 3.12
8. G20W 2.03
9. N23K 2.69
10. K11F 2.3
11. S10E 2.44
12. S10L 3.46
13. G5P 2.69
14. S18N 2.54
15. S21C 2.64
16. I22M 3.02
17. K24L 1.91
18. V3F 2.64
19. R9D 3.68
20. E19Y 1.58
21. S17W 2.17
22. V3L 2.07
